B1: OR4K15 (parent)
chain: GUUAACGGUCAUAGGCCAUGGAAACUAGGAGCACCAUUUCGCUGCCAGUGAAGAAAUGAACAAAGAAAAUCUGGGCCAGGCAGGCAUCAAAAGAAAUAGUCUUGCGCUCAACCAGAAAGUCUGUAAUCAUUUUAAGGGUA

variants of: B1; assay: self-cleavage, relative activity (ratio to wild type); higher = more cleavage; in vitro, sequencing; the parent is a self-cleaving ribozyme
Response key: True means self-cleavage >= 1; False means self-cleavage < 1.

Solved entries:
{"variant.identifier": "A90G U102A", "assigned.category": "False"}
{"variant.identifier": "G15C A94G", "assigned.category": "False"}
{"variant.identifier": "A66G A68C", "assigned.category": "True"}
{"variant.identifier": "A52G U103A", "assigned.category": "False"}

Does G106C A129U have a reported self-cleavage of at least 1?
False

Does G20U U37C have a reported self-cleavage of at least 1?
True

Does C40U U131C have a reported self-cleavage of at least 1?
True

Does U39C A60U have a reported self-cleavage of at least 1?
True

Does A54U A78U have a reported self-cleavage of at least 1?
False

Does A118C U132C have a reported self-cleavage of at least 1?
False

Does U43C U108A have a reported self-cleavage of at least 1?
False

Does U39C A52C have a reported self-cleavage of at least 1?
True

Does A24G A86C have a reported self-cleavage of at least 1?
False

Does U57C C121A have a reported self-cleavage of at least 1?
True

Does A59U A62U have a reported self-cleavage of at least 1?
True
